- System: ryegrass, Italian (Italian ryegrass, Lolium multiflorum)
- assay method text: Test C greenhouse herbicide test, pre- and postemergence
- Assay type: in vivo
- details: Postemergence, 31 g ai/ha; 0 to 100 scale (0 no effect, 100 complete control)
- Description: […]
Kindly state Ryegrass, Italian plant response rating for each of the entries shown.
Just the number, please, no unit attached.

Requested read-out Ryegrass, Italian plant response rating, target or system ryegrass, Italian (Italian ryegrass, Lolium multiflorum), entry COc1nn(C)c(=O)c(-c2c(C)ccc3ccccc23)c1O
50

Could you share what Ryegrass, Italian plant response rating was measured for CC(=O)Oc1c(C)nn(C)c(=O)c1-c1c(C)oc2ccc(C)cc12 , tested on ryegrass, Italian (Italian ryegrass, Lolium multiflorum)?
40

Which Ryegrass, Italian plant response rating is reported with ryegrass, Italian (Italian ryegrass, Lolium multiflorum) for this entry: CC(=O)Oc1c(C)nn(C)c(=O)c1-c1c(C)sc2ccc(C)cc12 ?
70

# query: Ryegrass, Italian plant response rating | item Cc1ccc2ccccc2c1-c1c(O)c(C)nn(C)c1=O | system: ryegrass, Italian (Italian ryegrass, Lolium multiflorum)
85

# returns recorded Ryegrass, Italian plant response rating (system: ryegrass, Italian (Italian ryegrass, Lolium multiflorum)) for Cc1cc(C)c2ccccc2c1-c1c(O)cnn(C)c1=O
35

* * *

- Test system: oilseed rape (Brassica napus)
- assay method text: Test C greenhouse herbicide test, pre- and postemergence
- Format: in vivo
- details: Postemergence, 31 g ai/ha; 0 to 100 scale (0 no effect, 100 complete control)
I'd appreciate it if you could supply Oilseed Rape plant response rating values for the items below.

Please give the measured Oilseed Rape plant response rating for this compound: Cc1ccc(-c2c(O)c(Br)nn(C)c2=O)c2ccccc12
0

# get_value(readout='Oilseed Rape plant response rating', item= CC(=O)Oc1c(C)nn(C)c(=O)c1-c1c(C)oc2ccc(C)cc12 )
0

Which Oilseed Rape plant response rating value belongs to CCC(=O)Oc1c(C)nn(C)c(=O)c1-c1c(C)sc2ccc(C)cc12 ?
0

I have this compound here, Cc1ccc2sc(C)c(-c3c(O)c(C)nn(C)c3=O)c2c1 , and I need its recorded Oilseed Rape plant response rating.
0

Record request: Oilseed Rape plant response rating value, item Cc1ccc2ccc(C)c(-c3c(O)c(C)nn(C)c3=O)c2c1
5

* * *

- System: corn (Zea mays)
- assay method text: Test C greenhouse herbicide test, pre- and postemergence
- Type: in vivo
- details: postemergence, 62 g ai/ha; scale 0 to 100, 0 no effect, 100 complete control
For each record, check the reported Corn plant response rating: if it is below 20 write y, else write n.

Hello, I'm reviewing records and need to know if Corn plant response rating of COc1nn(C)c(=O)c(-c2c(C)sc3ccccc23)c1O is below 20. Could you check?
y

Say whether its Corn plant response rating is strictly beneath 20. Entry: Cc1ccc2sc(C)c(-c3c(O)c(C)nn(C)c3=O)c2c1
n

Strictly below 20 in Corn plant response rating? Cc1nn(C)c(=O)c(-c2ccc(F)c3ccccc23)c1OC(=O)CC(F)(F)F
y

Lab log: compare recorded Corn plant response rating with 20; is it strictly lower for Cc1ccc2ccc(C)c(-c3c(O)c(C)nn(C)c3=O)c2c1 ?
n

Corn plant response rating under 20? Item: Cc1cc(C)c2ccccc2c1-c1c(O)cnn(C)c1=O
y

Strictly below 20 in Corn plant response rating? CCOC(=O)Oc1c(C)nn(C)c(=O)c1-c1c(C)sc2ccc(C)cc12
n

Does this molecule meet the criterion Corn plant response rating < 20? CCCC(=O)Oc1c(C)nn(C)c(=O)c1-c1c(C)sc2c(C)cc(C)cc12
y
